Target: T1, human Nectin-4 extracellular antigen hNectin-4-His (human, UniProt Q96NY8 32-349)
T1 construct: C-terminal 8xHis tag included
T1 sequence: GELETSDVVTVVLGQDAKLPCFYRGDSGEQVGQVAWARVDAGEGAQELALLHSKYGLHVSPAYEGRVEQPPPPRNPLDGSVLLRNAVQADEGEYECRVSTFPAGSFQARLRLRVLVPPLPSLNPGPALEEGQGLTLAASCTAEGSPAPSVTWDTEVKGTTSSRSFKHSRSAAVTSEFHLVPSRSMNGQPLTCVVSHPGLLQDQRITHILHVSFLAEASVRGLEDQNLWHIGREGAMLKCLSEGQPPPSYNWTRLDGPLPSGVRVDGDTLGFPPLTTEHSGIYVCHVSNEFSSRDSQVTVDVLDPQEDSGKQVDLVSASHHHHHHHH
Experiment: ELISA, coated hNectin-4-His
So I've got a bunch of binders here, and I need their EC50 values.
Put down the number, then write its unit next to it.

IN: Form field: reported EC50 of antibody 1G8-2F11 (antibody, human IgG1, kappa, V domains shown) VH: EVQLVESGGGLVQPGGSLRLSCAASGYTFGSNAMSWVRQAPGKGLEWVSRISPDSSGISYADSVKGRFTISRDNSKNTLYLQMNSLRAEDTAVYYCARQTEDRSYGYDLDYWGQGTLVTVSS VL: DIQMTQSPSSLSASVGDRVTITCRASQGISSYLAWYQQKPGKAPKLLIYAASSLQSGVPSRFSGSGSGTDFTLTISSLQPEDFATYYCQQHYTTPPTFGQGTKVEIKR
OUT: 4 ng/mL

IN: Also antibody 1G8-2F2 (antibody, human IgG1, kappa, V domains shown) VH: EVQLVESGGGLVQPGGSLRLSCAASGDIFGSYAMSWVRQAPGKGLEWVSRISSHGASRDYADSVKGRFTISRDNSKNTLYLQMNSLRAEDTAVYYCARQTEDRSYGYDLDYWGQGTLVTVSS VL: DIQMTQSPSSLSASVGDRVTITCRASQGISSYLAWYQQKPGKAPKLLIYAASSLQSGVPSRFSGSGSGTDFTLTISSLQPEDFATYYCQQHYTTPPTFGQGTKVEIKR , if possible.
OUT: 12 ng/mL

IN: Also antibody 1F3-1D12 (antibody, human IgG1, kappa, V domains shown) VH: EVQLVESGGGLVQPGGSLRLSCAASGYNFTDYGMSWVRQAPGKGLEWVSGISGSGDNKYYADSVKGRFTISRDNSKNTLYLQMNSLRAEDTAVYYCARAELLAFDVYTASDYWGQGTLVTVSS VL: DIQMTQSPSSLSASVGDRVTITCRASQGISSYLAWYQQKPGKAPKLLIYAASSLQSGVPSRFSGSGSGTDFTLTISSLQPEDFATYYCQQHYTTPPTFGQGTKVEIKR , if possible.
OUT: 7 ng/mL

IN: Also antibody 1F3-2B1 (antibody, human IgG1, kappa, V domains shown) VH: EVQLVESGGGLVQPGGSLRLSCAASGYNFDNYAMSWVRQAPGKGLEWVSGIKPDSATTYYADSVKGRFTISRDNSKNTLYLQMNSLRAEDTAVYYCARAELLAFDVYTASDYWGQGTLVTVSS VL: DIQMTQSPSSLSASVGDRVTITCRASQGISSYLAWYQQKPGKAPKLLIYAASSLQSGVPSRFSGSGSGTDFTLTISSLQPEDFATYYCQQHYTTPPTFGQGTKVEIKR , if possible.
OUT: 14 ng/mL

IN: Also antibody 1G8-2G8 (antibody, human IgG1, kappa, V domains shown) VH: EVQLVESGGGLVQPGGSLRLSCAASGFNFTNYAMSWVRQAPGKGLEWVSRISTYGDTTHYADSVKGRFTISRDNSKNTLYLQMNSLRAEDTAVYYCARQTEDRSYGYDLDYWGQGTLVTVSS VL: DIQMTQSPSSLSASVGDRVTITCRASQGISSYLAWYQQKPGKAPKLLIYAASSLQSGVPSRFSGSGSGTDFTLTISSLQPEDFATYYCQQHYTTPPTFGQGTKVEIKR , if possible.
OUT: 6 ng/mL
